- Protocol Description: Quantitative High-Throughput drug screen in 47 multiple myeloma cell lines against the NCATS MIPE library collection: H1112_PLB cell viability assay (AID 1918967; further: nearly all actives have a fitted effect of over 30% in size)
- Condition Label: H1112 myeloma cells viability, ATP luminescence, 48 h; series mostly up to 45.8 µM
Inconclusive results are not listed. Calls of active or inactive are those of the source. The call rests on the fitted dose curve; in most records, active means well fitted cell-killing curve with a large enough effect; inconclusive means small, poorly fitted or top-dose-only effect, or effect the other way; inactive means no such curve, though single readings can be large or run the other way.
Write down one outcome, taken from 1 (active), 0 (inactive)

Q) Per the assay record, what outcome was assigned to Clc1cccc(-n2nnnc2NCc2ccccc2Oc2ccccn2)c1Cl ?
A) 0

Q) Test call, this molecule: Cc1[nH]nc2ccc(-c3cncc(OC[C@@H](N)Cc4ccccc4)c3)cc12
A) 1

Q) What classification did CC=C1NC(=O)[C@H]2CSSCCC=C[C@H](CC(=O)N[C@H](C(C)C)C(=O)N2)OC(=O)[C@H](C(C)C)NC1=O end up with in this test?
A) 1

Q) Recorded test outcome, item Nc1ccn([C@@H]2O[C@H](CO)[C@H](O)C2(F)F)c(=O)n1
A) 1

Q) Tell me the assay call for Cc1cc(Nc2cc(CN3CCOCC3)c3nc(C)c(Cc4ccc(Cl)cc4F)n3n2)n[nH]1 please.
A) 1

----------
- Protocol Description: qHTS of pediatric cancer cell lines to identify multiple opportunities for drug repurposing: Primary screen for NB1643 cells (AID 1347099); further: nearly all actives have a fitted effect of over 50% in size
- Condition Label: NB1643 neuroblastoma viability, CellTiter-Glo luminescence, 48 h; series mostly up to 46 µM
Inconclusive results are not listed. Active and inactive are the calls of the source. Calls come from the whole dose curve; as a rule, active = well fitted cell-killing curve with a large enough effect; inconclusive = small, poorly fitted or top-dose-only effect; inactive = no such curve, though single readings can be large or run the other way.
Outcomes you can answer with include only these: true (1) = active, false (0) = inactive

Example entries and their recorded answers appear below.
CC(C)=CCCC(C)=CCCC(C)=CCSc1ccccc1C(=O)O: false (0)
CCn1nnc2c(N3CCOCC3)nc(-c3ccc(NC(=O)Nc4ccc(C(=O)N5CCN(C)CC5)cc4)cc3)nc21: true (1)
CS(=O)(=O)c1ccc(-c2cnc(N)c(C(=O)Nc3ccccc3)n2)cc1: false (0)
Clc1cccc(-n2nnnc2NCc2ccccc2Oc2ccccn2)c1Cl: false (0)
C=CC(=O)Nc1cccc(Oc2nc(Nc3ccc(N4CCN(C)CC4)cc3OC)ncc2Cl)c1: true (1)

Q) So what was the verdict on Cc1cccc(C=NNc2cc(N3CCOCC3)nc(OCCc3ccccn3)n2)c1 in this test?
A) true (1)

Q) Query: recorded result category for COc1cc2c(Oc3ccc(-c4cnc(Nc5ccc(F)cc5)n(C)c4=O)cc3F)ccnc2cc1OCCCN1CCOCC1 in this test
A) true (1)

Q) Tell me the assay call for Cc1nc2ccc(CN(C)c3ccc(C(=O)N[C@@H](CCC(=O)O)C(=O)O)s3)cc2c(=O)[nH]1 please.
A) false (0)

Q) Please indicate how the test categorized C[C@H]1C[C@@H]2[C@@H]([C@@H](O)C[C@@]3(C)[C@H]2CC[C@]3(O)C(=O)CO)[C@@]2(C)C=CC(=O)C=C12 .
A) false (0)

Q) Called result for CC(C)(C)NC(=O)[C@H]1CN(Cc2cccnc2)CCN1C[C@@H](O)C[C@@H](Cc1ccccc1)C(=O)N[C@H]1c2ccccc2C[C@H]1O
A) true (1)

Q) For this compound, state the assay outcome: O=C(O)CO.[NH2-].[NH2-].[Pt+2]
A) false (0)

Q) Test call, this compound: COc1cc2ncnc(Nc3ccc(F)c(Cl)c3)c2cc1NC(=O)C=CCN1CCCCC1
A) true (1)

Q) I'd appreciate the recorded outcome for Nc1ccccc1NC(=O)c1ccc(CNc2nccc(-c3cccnc3)n2)cc1 from this test.
A) true (1)

Q) For Cn1cncc1[C@@](N)(c1ccc(Cl)cc1)c1ccc2c(c1)c(-c1cccc(Cl)c1)cc(=O)n2C , which call appears in the assay record?
A) true (1)

Q) Please let me know the test result on file for C[C@]1(CO)CN(c2cc(C(=O)Nc3ccc4c(c3)-c3c(c(C(N)=O)nn3-c3ccc(F)cc3)CC4)c(Cl)cn2)C[C@@]1(C)CO .
A) true (1)

----------
- Protocol Description: qHTS for identification of novel therapeutic agents for treatment of microphthalmiaassociated transcription factor (MiT) renal cell carcinoma (RCC) (AID 1963991);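 further: curves scaled with 100% = DMSO viability and 0% = empty wells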
- Condition Label: TFE3-RCC viability, CellTiter-Glo, 48 h; measured here: UOK145 Z-AUC; stronger effect = lower value
Results filed as inconclusive are left out.
Labelling field: enter 1 if recorded z-score is less than 0.4. Enter 0 if it equals or exceeds that cut-off.

Completed entries (count: 7):
CC(C)[C@H](C(=O)Nc1ccc(C(=O)NO)cc1)c1ccccc1: 1
Cn1c(CNc2ccc(C(=N)N)cc2)nc2cc(C(=O)N(CCC(=O)O)c3ccccn3)ccc21: 0
CC(O)C1C(=O)N2C(C(=O)O)=C(SC3CNC(C(=O)N(C)C)C3)C(C)C12 (centres undefined): 0
Nc1cc(C(F)(F)F)c(-c2cc(N3CCOCC3)nc(N3CCOCC3)n2)cn1: 1
CCOc1cc2ncc(C#N)c(Nc3ccc(F)c(Cl)c3)c2cc1NC(=O)C=CCN(C)C: 1
CC=C1NC(=O)[C@H]2CSSCCC=C[C@H](CC(=O)N[C@H](C(C)C)C(=O)N2)OC(=O)[C@H](C(C)C)NC1=O: 1
COc1cccc(Nc2c(C(N)=O)cnc3c(C)cc(S(=O)(=O)c4cccc(C(=O)N(C)C)c4)cc23)c1: 0

Now turn to the next molecule.
Q) is_below(z-score, 0.4) for CC(C)C[C@H](NC(=O)CNC(=O)c1cc(Cl)ccc1Cl)B(O)O ?
A) 1

----------
- Protocol Description: qHTS of pediatric cancer cell lines to identify multiple opportunities for drug repurposing: Confirmatory screen for LAN-5 cells (AID 1347113); further: nearly all actives have a fitted effect of over 65% in size
- Condition Label: LAN-5 neuroblastoma cell viability; series mostly up to 45.9 µM
Inconclusive results are not listed. The source made the active and inactive calls. Calls follow the shape of the dose curve; as a rule, active = well fitted cell-killing curve with a large enough effect; inconclusive = small, poorly fitted or top-dose-only effect, or effect the other way; inactive = no such curve, though single readings can be large or run the other way.
Output constraint: value belongs to 1 for active, 0 for inactive

Record excerpt, results attached:
CN(C)Cc1c(C(=O)NCCOc2ccc(C(=O)NO)cc2)oc2ccccc12: 1
CC[C@H]1CN2CCc3cc(OC)c(OC)cc3[C@H]2C[C@@H]1C[C@@H]1NCCc2cc(OC)c(OC)cc21: 1
COc1ccc(-c2cc3c(C)nc(N)nc3n(C3CCC(OCCO)CC3)c2=O)cn1 (stereo not drawn): 0
CN1CCN(Cc2ccc(NC(=O)Nc3ccc(Oc4cc(NC(=O)C5CC5)ncn4)cc3)cc2C(F)(F)F)CC1: 1
CN1CC[C@@H](c2c(O)cc(O)c3c(=O)cc(-c4ccccc4Cl)oc23)[C@@H](O)C1: 1
CNC(=O)c1c(F)cccc1Nc1nc(Nc2cc3c(cc2OC)CCN3C(=O)CN(C)C)nc2[nH]ccc12: 1
O=C(C=Cc1cccc(S(=O)(=O)Nc2ccccc2)c1)NO: 1
CCN1CCN(Cc2ccc(-c3cc4c(N[C@H](C)c5ccccc5)ncnc4[nH]3)cc2)CC1: 1
CN(C)CCCN=c1c2ccccc2n(C)c2[nH]c(=O)n(C)c(=O)c12: 1
COc1cc2c(Oc3ccc(NC(=O)C4(C(=O)Nc5ccc(F)cc5)CC4)cc3F)ccnc2cc1OCCCN1CCOCC1: 1

As a next step, examine the compound that follows.
Q) // param item: Cc1cnc(Nc2ccc(F)cc2Cl)nc1-c1c[nH]c(C(=O)N[C@H](CO)c2cccc(Cl)c2)c1 ; yields the recorded call
A) 0

----------
- Protocol Description: Quantitative High-Throughput drug screen in 47 multiple myeloma cell lines against the NCATS MIPE library collection: Karpas620_DSMZ cell viability assay (AID 1918959); further: nearly all actives have a fitted effect of over 30% in size
- Condition Label: Karpas620 myeloma viability, CellTiter-Glo ATP luminescence, 48 h; series mostly up to 45.8 µM
- Excerpt: PI: Beverly A. Mock Ph.D. Laboratory of Cancer Biology and Genetics, Center for Cancer Research, National Cancer Institute, National Institute of Health, Bethesda, Maryland […] 5; Detector; 425V; Luminescence; Viewlux PerkinElmer. […] 1. […] Briefly, the corresponding myeloma cell lines were screened in 1,536-well plates with 500 cells, 5-uL per well for inhibition of cell viability (assessed by measuring ATP levels with CellTiterGlo). […]
Inconclusive results are not listed. The source made the active and inactive calls. The call rests on the fitted dose curve; in most records, active means well fitted cell-killing curve with a large enough effect; inconclusive means small, poorly fitted or top-dose-only effect, or effect the other way; inactive means no such curve, though single readings can be large or run the other way.
Your answer must be one of the following: y for active, n for inactive

The following compounds have reported results that may help.
CC1(C)OC2=C(C(=O)c3ccccc3C2=O)[C@H](NCc2ccccc2)[C@H]1O: y
O=c1c2ccccc2nc2n1CCc1c-2[nH]c2ccccc12: y

Q) Write down the call the test reported for this compound. Item: CC(C)(C)OC(=O)Nc1ccc(-c2cc(C(=O)NCCCCCCC(=O)NO)no2)cc1
A) y

Q) Can you look up the reported call for CC(C)(C)NC(=O)[C@H]1CN(Cc2cccnc2)CCN1C[C@@H](O)C[C@@H](Cc1ccccc1)C(=O)N[C@H]1c2ccccc2C[C@H]1O for me?
A) n

Q) Please let me know the test result on file for CC1COC2(CCN(c3nc(=O)c4cc(C(F)(F)F)cc([N+](=O)[O-])c4s3)CC2)O1 (centres undefined) .
A) n

Q) What did the test return for C[C@]12CC[C@H](O)CC1=CCC1C2CC[C@]2(C)C(n3cnc4ccccc43)=CCC12 (some centres undefined) ?
A) n

Q) What call does the record list for CCOc1ccccc1OCCNC(C)Cc1ccc(OC)c(S(N)(=O)=O)c1 (centres undefined) ?
A) n

Q) Recorded test outcome, item c1cc(-c2cnn3cc(-c4ccc(OCCN5CCCCC5)cc4)cnc23)ccn1
A) n

Q) What did the test return for OCCCNc1cc(-c2ccnc(Nc3cccc(Cl)c3)n2)ccn1 ?
A) y
